System: SF-539
assay_notes: NCI tumour cell line growth inhibition, 48 h
Active and inactive are the calls of the source. Rule as the data show it: active = GI50 up to about 1.1 µM and inactive = higher.
Mark one answer only. Choices: t (active), f (inactive)

In: Fill in: this test's call for "COC(=O)[C@@H](NC(=O)N(Cc1ccccc1)C[C@H](CC(C)C)NC(=O)[C@@H](NC(=O)OC(C)(C)C)C(C)C)C(C)C" is ___
Out: f

In: Fill in: this test's call for "Cc1cc(S(=O)(=O)Nc2nc(N)n[nH]2)c(Cl)cc1Cl" is ___
Out: f

In: Fill in: this test's call for CC(=O)N1OC(C)CC1Nc1ccc(Br)cc1 (configuration not stated) is ___
Out: f

In: Fill in: this test's call for "C=CC[N+](CCO)(CCO)CCCCCCCCCCCCCCCCCC" is ___
Out: f

In: Fill in: this test's call for "CCOC(=O)Nn1c(C)cc(C(=O)OC)c1C" is ___
Out: f

In: Fill in: this test's call for "Cc1[nH]n(C(=N)N)c(=O)c1CCO" is ___
Out: f

In: Fill in: this test's call for "CC(C)=CCC[C@]1(C)C=Cc2c(O)c3c(c(CC=C(C)C)c2O1)O[C@]12C(=C[C@@H]4CC1C(C)(C)O[C@@]2(C/C=C(/C)C(=O)O)C4=O)C3=O" is ___
Out: t
